The values you see were collected from patent US5126366A.

Test system: synthesis of dopamine
Measurement protocol: Inhibition of dopa accumulation in GBL/NSD-1015-treated rats (dopamine autoreceptor agonism; Walters and Roth)
Assay type: in vivo, rats (male, Sprague-Dawley)
Assay conditions: sc, striatal (S) brain tissue, rat, read-out: Dopa Accumulation (% inhib. @ 10 mg/kg, sc), striatal (S)
Would you please tag the item rule met when its inhibition at 10 mg/kg is 50% or above, and rule not met when it is below?

Q: # bool: inhibition at 10 mg/kg of Nc1cccc(OCCCNCC2COc3ccc(O)cc3O2)c1 (stereo not drawn) >= 50%
A: rule met

Q: # bool: inhibition at 10 mg/kg of Nc1cccc(OCCCNC[C@H]2COc3ccc(O)cc3O2)c1 >= 50%
A: rule met

Q: Would you say Nc1cccc(OCCCNC[C@@H]2COc3ccc(O)cc3O2)c1 shows inhibition at 10 mg/kg at minimum 50%?
A: rule not met

Q: Please tell me: is the molecule Nc1cccc(OCCCNCC2COc3cc(O)ccc3O2)c1 (stereo not drawn) at or over 50% in terms of inhibition at 10 mg/kg?
A: rule not met

Q: Is the recorded value of inhibition at 10 mg/kg equal to or greater than 50% for this molecule? Nc1cccc(OCCCNCC2COc3ccccc3O2)c1 (stereo not drawn)
A: rule not met

Q: Record Nc1cccc(OCCCNCC2COc3c(O)cccc3O2)c1 (stereo not drawn) ; criterion: inhibition at 10 mg/kg no lower than 50%. Met?
A: rule not met
